molecular target: UniProtKB P43220; parameters: dose or concentration left out as unconfirmed; details: CHO-K1, […], read-out: β-arrestin recruitment Bmax (%)
Sequence (P43220 24-463): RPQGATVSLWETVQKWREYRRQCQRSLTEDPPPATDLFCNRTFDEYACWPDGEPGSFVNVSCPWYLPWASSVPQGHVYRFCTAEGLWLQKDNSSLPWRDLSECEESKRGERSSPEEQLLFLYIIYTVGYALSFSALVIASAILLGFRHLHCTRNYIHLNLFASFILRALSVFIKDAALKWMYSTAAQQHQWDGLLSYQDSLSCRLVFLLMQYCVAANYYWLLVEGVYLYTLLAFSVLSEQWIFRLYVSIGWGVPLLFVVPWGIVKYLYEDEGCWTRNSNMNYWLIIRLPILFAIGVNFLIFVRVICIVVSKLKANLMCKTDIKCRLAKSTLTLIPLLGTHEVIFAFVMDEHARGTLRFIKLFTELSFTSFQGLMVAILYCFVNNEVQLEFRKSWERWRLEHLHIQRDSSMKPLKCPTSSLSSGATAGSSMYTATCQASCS
Sequence (P32121 whole entry partner): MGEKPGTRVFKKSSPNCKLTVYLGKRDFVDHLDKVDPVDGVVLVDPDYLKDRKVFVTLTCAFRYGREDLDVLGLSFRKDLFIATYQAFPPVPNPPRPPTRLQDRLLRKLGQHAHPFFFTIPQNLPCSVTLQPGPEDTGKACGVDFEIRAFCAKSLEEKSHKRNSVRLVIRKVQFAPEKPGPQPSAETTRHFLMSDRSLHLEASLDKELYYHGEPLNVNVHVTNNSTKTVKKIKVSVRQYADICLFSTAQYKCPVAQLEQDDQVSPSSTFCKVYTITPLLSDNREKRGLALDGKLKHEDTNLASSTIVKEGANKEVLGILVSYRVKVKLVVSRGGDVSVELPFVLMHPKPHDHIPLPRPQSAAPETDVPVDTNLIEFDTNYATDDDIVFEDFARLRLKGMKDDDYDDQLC
QUANTITY MEASURED: Emax (%)

N#Cc1ccc(COc2ncc(F)c(-c3ccc(Cc4nc5ccc(C(=O)O)nc5n4C[C@@H]4CCO4)c(F)c3)n2)c(F)c1 ... 29.4
O=C(O)c1ccc2nc(Cc3ccc(-c4nc(OCc5ccc(Cl)cc5F)c(F)cc4F)c(F)c3)n(C[C@@H]3CCO3)c2c1 ... 39.4
O=C(O)c1ccc2nc(Cc3ccc(-c4cccc(OCc5ccc(Cl)cc5F)n4)nc3)n(C[C@@H]3CCO3)c2c1 ... 0.971
O=C(O)c1ccc2nc(Cc3ccc(-c4cccc(OCc5ccc(Cl)cc5F)n4)c(F)c3)n(C[C@@H]3CCO3)c2c1F ... 62.8
N#Cc1ccc(COc2ncccc2C2=CCN(Cc3nc4ccc(C(=O)O)cc4n3C[C@@H]3CCO3)CC2)c(F)c1 ... 9.75
O=C(O)c1ccc2nc(Cc3ccc(-c4ccc(F)c(OCc5ccc(Cl)cc5F)n4)c(F)c3)n(C[C@@H]3CCO3)c2c1 ... 44.6
O=C(O)c1ccc2nc(Cc3ccc(-c4ccc(F)c(OCc5ccc(F)cc5F)n4)c(F)c3)n(C[C@@H]3CCO3)c2n1 ... 41.7
O=C(O)c1ccc2nc(Cc3ccc(-c4ncc(F)c(OCc5ccc(F)cc5F)n4)cc3F)n(C[C@@H]3CCO3)c2n1 ... 24

I: O=C(O)c1ccc2nc(Cc3ccc(-c4cccc(OCc5ccc(Cl)cc5F)c4)c(F)c3)n(C[C@@H]3CCO3)c2c1
II: O=C(O)c1ccc2nc(Cc3ccc(-c4cccc(OCc5ccc(Cl)cc5F)n4)c(F)c3F)n(C[C@@H]3CCO3)c2c1
Problem: Parameter check: reported Emax is higher for which label, I or II ? Write the label of whichever entry you select.
Result: II

---

target: GLP1R (Homo sapiens); assay: GLP1R cAMP assay (HTRF), HEK293/GLP-1R/CRE/Luc, Clone 4
Sequence (P43220 24-463): as the sequence (P43220 24-463) above
pEC50: −log10 of the molar value.
QUANTITY MEASURED: pEC50

Problem: For O=C(O)c1ccc2nc(CN3CC=C(c4csc(OCc5ccc(F)cc5Cl)n4)CC3)n(C[C@@H]3CCO3)c2c1 [Compound 254] , what is its reported pEC50?
Result: 6.82 to 7.82

Problem: For O=C(O)c1ccc2nc(Cc3ccc(-c4nccc(OCc5ccc(Cl)cc5F)n4)cc3F)n(C[C@@H]3CCO3)c2c1 [Compound 86] , what is its reported pEC50?
Result: > 7.82

Problem: For N#Cc1ccc(COc2nc(-c3ccc(Cc4nc5ccc(C(=O)O)cc5n4C[C@@H]4CCO4)c(F)c3)ncc2F)c(F)c1 [Compound 266] , what is its reported pEC50?
Result: > 7.82

---

molecular target: GLP1R (Homo sapiens, UniProt P43220); assay: β-Arrestin-mediated GLP1R internalization assay (PathHunter U2OS cells); format: cell-based; design: host or cells: PathHunter engineered U2OS cells; settings: averaged Bmax where applicable, Percentage of Control GLP-1 (7-37), top 10 μM, 180 min
QUANTITY MEASURED: β-arrestin internalization Bmax (POC)
// return numeric value only (unit: POC, not printed)

These recorded examples may help you get a feel for the data.
O=C(O)c1ccc2nc(Cc3ccc(-c4cccc(OCc5ccc(Cl)cc5F)n4)nc3)n(C[C@@H]3CCO3)c2c1 ... 0.881
N#Cc1ccc(COc2cccc(-c3ccc(Cc4nc5ccc(C(=O)O)cc5n4C[C@@H]4CCO4)cc3F)n2)c(F)c1 ... 20.8

Okay, next one:
Problem: For "O=C(O)c1ccc2nc(Cc3ccc(-c4nc(OCc5ccc(Cl)cc5F)ncc4F)cc3F)n(C[C@@H]3CCO3)c2c1" , what is its reported β-arrestin internalization Bmax (POC)?
Result: 21.6

---

biological target: GLP1R (Homo sapiens, UniProt P43220); design: dose or concentration left out as unconfirmed; details: CHO-K1, […], read-out: β-arrestin recruitment Bmax (%)
QUANTITY MEASURED: Emax (%)

N#Cc1ccc(COc2cccc(-c3ccc(Cc4nc5ccc(C(=O)O)c(F)c5n4C[C@@H]4CCO4)c(F)c3)n2)c(F)c1 ... 37.8
O=C(O)c1ccc2nc(Cc3ccc(-c4ccnc(OCc5ccc(Cl)cc5F)n4)cc3F)n(C[C@@H]3CCO3)c2c1 ... 33.1
O=C(O)c1ccc2nc(Cc3ccc(-c4nccc(OCc5ccc(Cl)cc5F)n4)cc3F)n(C[C@@H]3CCO3)c2c1 ... 33.5
O=C(O)c1ccc2nc(Cc3ccc(-c4nc(OCc5ccc(Cl)cc5F)ncc4F)cc3F)n(C[C@@H]3CCO3)c2c1 ... 35.8
O=C(O)c1ccc2nc(Cc3ccc(-c4ccc(F)c(OCc5ccc(F)cc5F)n4)cc3F)n(C[C@@H]3CCO3)c2n1 ... 39.3
O=C(O)c1ccc2nc(Cc3ccc(-c4ccc(F)c(OCc5ccc(Cl)cc5F)n4)cc3F)n(C[C@@H]3CCO3)c2c1 ... 44.6
N#Cc1ccc(COc2cccc(-c3ccc(Cc4nc5ccc(C(=O)O)c(F)c5n4C[C@@H]4CCO4)cc3F)n2)c(F)c1 ... 46.8

---

# EC50 values compiled below
target: GLP1R (Homo sapiens, UniProt P43220); experiment: GLP1R cAMP assay (HTRF), HEK293/GLP-1R/CRE/Luc, Clone 4

O=C(O)c1ccc2nc(CN3CC=C(c4csc(OCc5ccc(C#CC6CC6)cc5F)n4)CC3)n(C[C@@H]3CCO3)c2c1 [Compound 249] ... 15 to 150 nM

Problem: For O=C(O)c1ccc2nc(Cc3ccc(-c4ccc(F)c(OCc5ccc(Cl)cc5F)n4)c(F)c3)n(C[C@@H]3CCO3)c2c1 [Compound 83] , what is its reported EC50?
Result: < 15 nM

Problem: For O=C(O)c1ccc2nc(Cc3ccc(-c4cccc(OCc5ccc(F)cc5F)n4)cc3F)n(C[C@@H]3CCO3)c2n1 [Compound 286] , what is its reported EC50?
Result: < 15 nM

Problem: For O=C(O)c1ccc2nc(Cc3ccc(-c4ncc(F)c(OCc5ccc(Cl)cc5F)n4)c(F)c3)n(C[C@@H]3CCO3)c2c1 [Compound 81] , what is its reported EC50?
Result: < 15 nM

Problem: For O=C(O)c1ccc2nc(Cc3ccc(-c4cccc(OCc5ccc(Cl)cc5F)n4)cn3)n(C[C@@H]3CCO3)c2c1 [Compound 101] , what is its reported EC50?
Result: > 1000 nM

---

# pEC50 values compiled below
target: GLP1R (Homo sapiens); experiment: GLP1R cAMP assay (HTRF), HEK293/GLP-1R/CRE/Luc, Clone 4
pEC50: −log10 of the molar value.

These recorded examples may help you get a feel for the data.
O=C(O)c1ccc2nc(CN3CC=C(c4csc(OCc5ccc(F)cc5F)n4)CC3)n(C[C@@H]3CCO3)c2c1 ... 6.82 to 7.82
O=C(O)c1ccc2nc(Cc3ccc(-c4ccnc(OCc5ccc(Cl)cc5F)n4)cc3F)n(C[C@@H]3CCO3)c2c1 ... > 7.82
Cc1cc(-c2cccc(OCc3ccc(Cl)cc3F)n2)ccc1Cc1nc2ccc(C(=O)O)cc2n1C[C@@H]1CCO1 ... > 7.82

Okay, next one:
Problem: For "O=C(O)c1ccc2nc(Cc3ccc(-c4cccc(OCc5ccc(Cl)cc5F)c4)c(F)c3)n(C[C@@H]3CCO3)c2c1" , what is its reported pEC50?
Result: > 7.82

---

# EC50 values compiled below
target: GLP1R (Homo sapiens); experiment: GLP1R cAMP assay (HTRF), HEK293/GLP-1R/CRE/Luc, Clone 4

Problem: For "O=C(O)c1ccc2nc(Cc3ccc(-c4ncc(F)c(OCc5ccc(Cl)cc5F)n4)cc3F)n(C[C@@H]3CCO3)c2c1" , what is its reported EC50?
Result: < 15 nM

Problem: For "N#Cc1ccc(COc2cccc(N3CCC(=Cc4nc5ccc(C(=O)O)nc5n4C[C@@H]4CCO4)CC3)n2)c(F)c1" , what is its reported EC50?
Result: 15 to 150 nM

Problem: For "N#Cc1ccc(COc2cccc(-c3cc(F)c(Cc4nc5ccc(C(=O)O)nc5n4C[C@@H]4CCO4)cc3F)n2)nc1" , what is its reported EC50?
Result: < 15 nM

Problem: For "O=C(O)c1ccc2nc(Cc3ccc(-c4ccc(F)c(OCc5ccc(F)cc5F)n4)c(F)c3)n(C[C@@H]3CCO3)c2n1" , what is its reported EC50?
Result: < 15 nM

---

biological target: UniProtKB P43220; assay: β-Arrestin-mediated GLP1R internalization assay (PathHunter U2OS cells); type: cell-based; parameters: host or cells: PathHunter engineered U2OS cells; details: averaged Bmax where applicable, Percentage of Control GLP-1 (7-37), top 10 μM, 180 min
QUANTITY MEASURED: β-arrestin internalization Bmax (POC)

These recorded examples may help you get a feel for the data.
O=C(O)c1ccc2nc(Cc3ccc(-c4nc(OCc5ccc(Cl)cc5F)ncc4F)c(F)c3)n(C[C@@H]3CCO3)c2c1 ... 13.8
N#Cc1ccc(COc2nc(-c3ccc(Cc4nc5ccc(C(=O)O)c(F)c5n4C[C@@H]4CCO4)c(F)c3)ncc2F)c(F)c1 ... 45.2
O=C(O)c1ccc2nc(Cc3ccc(-c4ccc(F)c(OCc5ccc(F)cc5F)n4)c(F)c3)n(C[C@@H]3CCO3)c2n1 ... 30.2
O=C(O)c1ccc2nc(Cc3ccc(-c4ccnc(OCc5ccc(Cl)cc5F)n4)c(F)c3)n(C[C@@H]3CCO3)c2c1 ... 21.2
O=C(O)c1ccc2nc(Cc3ccc(-c4nc(OCc5ccc(Cl)cc5F)c(F)cc4F)c(F)c3)n(C[C@@H]3CCO3)c2c1 ... 22.5

1: O=C(O)c1ccc2nc(Cc3ccc(-c4ccc(F)c(OCc5ccc(Cl)cc5F)c4)c(F)c3)n(C[C@@H]3CCO3)c2c1
2: O=C(O)c1ccc2nc(Cc3ccc(-c4ncc(F)c(OCc5ccc(Cl)cc5F)n4)c(F)c3)n(C[C@@H]3CCO3)c2c1
Problem: Parameter check: reported β-arrestin internalization Bmax (POC) is higher for which label, 1 or 2 ? Write the label of whichever entry you select.
Result: 2
(2: 30.6 POC, 1: 7.49 POC)
